test: Thermal stability: polymorphic form after drying or heating (XRPD); type: physicochemical
ASSAY_METRIC: thermal stability (conversion to another form upon heating)

Some compounds with known thermal stability (conversion to another form upon heating) results, for comparison:
CC(C)[C@H]1CC[C@H](C(=O)N[C@H](Cc2ccccc2)C(=O)O)CC1 [Form B, nateglinide] : thermally stable
CC(C)[C@H]1CC[C@H](C(=O)N[C@H](Cc2ccccc2)C(=O)O)CC1 [Form H, nateglinide] : thermally stable
CC(C)[C@H]1CC[C@H](C(=O)N[C@H](Cc2ccccc2)C(=O)O)CC1 [Form L, nateglinide] : thermally stable
CC(C)[C@H]1CC[C@H](C(=O)N[C@H](Cc2ccccc2)C(=O)O)CC1 [Form σ, nateglinide] : thermally stable

# query: thermal stability (conversion to another form upon heating) of entry CC(C)[C@H]1CC[C@H](C(=O)N[C@H](Cc2ccccc2)C(=O)O)CC1 [Form δ, nateglinide]
somewhat stable

Which thermal stability (conversion to another form upon heating) value belongs to CC(C)[C@H]1CC[C@H](C(=O)N[C@H](Cc2ccccc2)C(=O)O)CC1 [Form O, nateglinide] ?
somewhat stable

Name the recorded thermal stability (conversion to another form upon heating) for CC(C)[C@H]1CC[C@H](C(=O)N[C@H](Cc2ccccc2)C(=O)O)CC1 [Form Y, nateglinide] .
somewhat stable

Endpoint output: thermal stability (conversion to another form upon heating) of CC(C)[C@H]1CC[C@H](C(=O)N[C@H](Cc2ccccc2)C(=O)O)CC1 [Form U, nateglinide] . Value?
thermally stable

Recorded thermal stability (conversion to another form upon heating) for CC(C)[C@H]1CC[C@H](C(=O)N[C@H](Cc2ccccc2)C(=O)O)CC1 [Form α, nateglinide] , please?
somewhat stable

These data points were gathered from patent US7148376B2.
